Target: human GLP-1 receptor (GLP1R) (human, UniProt P43220 24-463)
Method Notes: cell-based or functional assay
Numbered stars: 1 amine (or outer) side, 2 acyl side, 3 side chain; on linkers, the order of the positions; unused ones are H or OH. Square brackets hold non-standard residues; d marks the D form. Side chains are listed from the residue outwards. Ends that are not written are not given here. * marks the point of attachment. Phe(4-CH2NH2) = NCc1ccc(C[C@H](N)C(=O)O)cc1; αMeW = C[C@](N)(Cc1c[nH]c2ccccc12)C(=O)O; C16 diacid = O=C(O)CCCCCCCCCCCCCCC(=O)*; γGlu = O=C(O)[C@H](CCC(=O)[*:2])N[*:1]; Met(O2) = CS(=O)(=O)CC[C@H](N)C(=O)O; αMeD = C[C@](N)(CC(=O)O)C(=O)O; αMeS = C[C@](N)(CO)C(=O)O; AEEA = NCCOCCOCC(=O)O; Aib = CC(C)(N)C(=O)O; C16 = lipid (C16)
Measurement Kind: GLP1R EC50 human (nM)

[[record]]
binder = "H[Aib]QGTFTSDYSKYLD[Aib]RAAQFVQK([AEEA-AEEA-γGlu-C16 diacid])WLLATK-{γGlu-NH2} [TP666]"
measurement_kind = "GLP1R EC50 human"
limit_operator = ">"
reported_value = 19.8

[[record]]
binder = "H[αMeS]QGTFTSDYSKYLD[Aib]RAAK([AEEA-AEEA-γGlu-C20‑OH])DFVQWL[Met(O2)]DT-NH2 [TP593]"
measurement_kind = "GLP1R EC50 human"
limit_operator = "="
reported_value = 4.95

[[record]]
binder = "H[Aib]QGTFTSDK([γGlu-γGlu-C16])SKYLDARAAK([AEEA-AEEA-γGlu-C16 diacid])DFVQWL[Met(O2)]DT-NH2 [TP606]"
measurement_kind = "GLP1R EC50 human"
limit_operator = "="
reported_value = 1.84

[[record]]
binder = "H[Aib]QGTFTSDYSKYLDARAAKDFVQ[αMeW]L[Met(O2)][αMeD]T-NH2 (not fully specified (residue 20); printed as HUQGTFTSDYSKYLDARAAK(PEG2PEG2γEC18-OH)DFVQαMWL2αMDT-NH2) [TP632]"
measurement_kind = "GLP1R EC50 human"
limit_operator = "="
reported_value = 6.6

[[record]]
binder = "H[Aib]QGTFTSDK([γGlu-γGlu-C16])SKYLDARAAQDFVK([AEEA-AEEA-γGlu-C16 diacid])WL[Met(O2)][αMeD]T-NH2 [TP607]"
measurement_kind = "GLP1R EC50 human"
limit_operator = "="
reported_value = 1.06

[[record]]
binder = "H[Aib]QGTFTSDYSKYLDARAAQDFVQWL[Met(O2)][Phe(4-CH2NH2)]([AEEA-AEEA-γGlu-C20‑OH])T-NH2 [TP605]"
measurement_kind = "GLP1R EC50 human"
limit_operator = "="
reported_value = 1.98


Value source: patent US20200270325A1
